Experiment: yeast display, Sf9 membrane polyspecificity reagent, FACS + sequencing; frameworks hold sequencing errors
Measured metric: polyreactivity (PSR sort gate)

QVQLVESGGGLVQAGGSLRLSCAASGSIFVGYAMGWYRQAPGKERELVAAISKSGGSTYYADSVKGRYTISRDNAKNTVYLQMNSLKPEDTAVYYCAAYPVRLVYSQHRYQYDYWGQGTQVTVSS = high polyreactivity
QVQLVESGGGLVQAGGSLRLSCAPSGSIFWYYCKGWYRQAPGKERELVAAISSGGSTNYADSVKGRFAISRDNAKNTVYLQMNSLKAEDTAVYYCAVRFTFPRYDYWGQGTQVTVSS = high polyreactivity

----------
Assay: yeast display, Sf9 membrane polyspecificity reagent, FACS + sequencing; frameworks hold sequencing errors
Measured metric: polyreactivity (PSR sort gate)

Some entries whose results are on file:
QVQLVESGGGLVQAGGSLRLSCAASGSTFRYYAMGWYRQAPGKERELVAAISTSGGRTYYADSVKGRFTISRDNAKNTVYLQMNSLKPEDTAVYYCNARESRGYSDQTWKYYYWGQGTQVTVSS = high polyreactivity
QVQLVESGGGLVQAGGSLRLSCAASGITFKYYAMGWYRQAPGKERELVADISWGGGSTYYADSVKGRFTISRDNAKNTVYLQMNSLKPEDTAVYYCAAEYSGSYYSFWMVYWGLGTQVTVSS = low polyreactivity
QVQLVESGGGLDQAGGSLRLSCAASGFTFSYNAMGWYRQAPGKERELVASISWRGGGTYYADSVKGRFTISRDNAKNTVYLQMNSLKPEDTAVYYCNAGLTDYIGDPSEVDYWGQGTQVTVSS = low polyreactivity
QVQLVESGGGLVQAGGSLRLSCAASGRTFVHYTMGWYRQAPGKERELVAAISGTGTSTYYADSVKGRFTISRDNAKNTVYLQMNSLKPEDTAVYYCARDPFFGFHIGYPRRDYWGQGTQVTVSS = low polyreactivity
QVQLVESGGGLVQAGGSLRLSCASYGRIIGIYAMGWSRPAHGKERELVATITDSDDSTYYADSVKGRFTISRDNAKNTVYLQMNSLKPEDTAVYFCATAFSYGGGAYDYWGHGTQVTVSS = low polyreactivity

Fill in: polyreactivity (PSR sort gate) of QVQLVESGGGLVQAGGSLRLSCAASGRIFHSYVMGWYRQAPGKERELVARISSGGRTNYADSVKGRFTISRDNAKNSVYLQMNSLKPEDTAVYYCAATRLYPRSRYDYWGQGTQVTVSS is ___
high polyreactivity

Fill in: polyreactivity (PSR sort gate) of QDQLVESVGGLVQAGGSLRLSCAASVRIFYWNAIGWYRQATGKESELVATITRGDRTYYADSVKGRFTISRDNAKNTVYLQMNSLKPEDTAVYYCARSSNPYFYGMYYWGQGTQVTVSS is ___
high polyreactivity

Fill in: polyreactivity (PSR sort gate) of QVQLVESGGGLVQAGGSQRLSCAASGRIFRYYAMGWYRQAPGKERELVAAITWSGGSTYYADSVKGRFTISRDNEKNTVYLQMNSLKPDDTAVYYCTAISYQPFHGDYWGQGTQVTVSS is ___
low polyreactivity

Fill in: polyreactivity (PSR sort gate) of QVHLVESGGGLVQAGGSLRLSCAASGGTFQSYAMGWYRQAPGKERELVAAITQGGGRTYYADSVKGRFTISRDNAKNTVYLQMNSLKPEDTAVYYCAARQKTPYYYNYGYWGQGTQVTVSS is ___
high polyreactivity

Fill in: polyreactivity (PSR sort gate) of QVQLVESGGGLVQAGGSLRLSCAASGSIFRSNAMGWYRQAPGKEREVVAAISSRGGSTYYADSVKGRFTISRDNAKNTVYLQMNSLKPEDTAVYFCNKARYTVISYDEYDYWGQGTQVTVSS is ___
high polyreactivity

Fill in: polyreactivity (PSR sort gate) of QVQLVDSGGGLVQAGGSLRLSCAASGRNFARYSMGWYRQAPGTERELVAAISWCGTSTYYADSVKGRYTISRDNAKNTVYLQMNSLKPEDTAVYYCAATYLYRDQPKWGGFAYTYGHWGQGTQVTVSS is ___
high polyreactivity
